Data origin, for the record: patent US11613525B2

# experimental-system: huSTING (WT) (Homo sapiens (Human), UniProt Q86WV6, H232R)
# assay: Differential scanning fluorimetry (DSF), huSTING (WT)
# Assay type: binding
# condition-summary: read-out: DSF huSTING (WT) ΔTm (° C.)
# Sequence (Q86WV6 other isoform, or with tags, fused parts or gaps, stated change not applied): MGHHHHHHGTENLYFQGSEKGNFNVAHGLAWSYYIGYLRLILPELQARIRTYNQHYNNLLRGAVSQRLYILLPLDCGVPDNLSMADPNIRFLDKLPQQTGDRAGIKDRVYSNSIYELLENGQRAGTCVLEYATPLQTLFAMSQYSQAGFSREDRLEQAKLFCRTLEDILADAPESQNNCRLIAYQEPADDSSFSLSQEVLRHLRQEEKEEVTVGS
ΔTm at 100 µM less than 3 °C is condition met; ΔTm at 100 µM greater than or equal to 3 °C is condition not met.

[
  {
    "smiles-input": "NC(=O)c1ccc(OCc2c(C(=O)O)sc3cccc(Cl)c23)cn1",
    "discrete-label": "condition met"
  },
  {
    "smiles-input": "NC(=O)c1ccc(OCc2c(C(=O)O)sc3cccc(F)c23)cc1",
    "discrete-label": "condition met"
  },
  {
    "smiles-input": "NC(=O)c1ccc(OCc2c(C(=O)O)sc3cccc(Cl)c23)cc1Br",
    "discrete-label": "condition met"
  },
  {
    "smiles-input": "NC(=O)c1ccc(OCc2c(C(=O)O)sc3cccc(C4CC4)c23)cc1",
    "discrete-label": "condition not met"
  }
]

Would you kindly look at the next entry?
Q: # strict comparison: is reported ΔTm at 100 µM < 3 °C? input = `NC(=O)c1ccc(OCc2c(C(=O)O)sc3cc(Cl)ccc23)cc1`
Result: condition met

###

# experimental-system: huSTING (HAQ) (Homo sapiens (Human), UniProt Q86WV6, G230A/H232R/R293Q/R71H)
# Sequence (Q86WV6 whole entry R71H/G230A/H232R/R293Q): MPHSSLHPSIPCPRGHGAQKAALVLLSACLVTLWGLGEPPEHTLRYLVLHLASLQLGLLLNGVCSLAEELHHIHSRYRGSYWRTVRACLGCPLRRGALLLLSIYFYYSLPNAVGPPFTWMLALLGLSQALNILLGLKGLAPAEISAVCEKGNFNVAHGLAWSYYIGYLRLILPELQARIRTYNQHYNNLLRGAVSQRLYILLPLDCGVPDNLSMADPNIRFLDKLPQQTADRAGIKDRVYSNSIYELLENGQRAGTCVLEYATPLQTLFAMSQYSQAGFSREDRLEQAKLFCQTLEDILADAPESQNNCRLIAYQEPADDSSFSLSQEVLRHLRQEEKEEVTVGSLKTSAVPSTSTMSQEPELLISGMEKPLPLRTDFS
# assay: THP-1 reporter cell line assay, THP-1 STING Lucia ISG cells
# Assay type: cell-based
# condition-summary: THP-1 STING Lucia ISG cells; 24 h; top concentration 50 μM; read-out: Cellular EC50 huSTING (HAQ)
Catalogue of log10 of EC50 values
Hey, these are logged values: log10 of EC50, µM being the unit before logging.

[
  {
    "molecule": "CCOC(=O)c1sc2cccc(F)c2c1COc1ccc(C(N)=O)cc1F [Example 58]",
    "log10 of EC50": 0.96
  },
  {
    "molecule": "COc1cc(C(N)=O)ccc1OCc1c(C(=O)O)sc2cccc(Cl)c12 [Example 30]",
    "log10 of EC50": 1.56
  },
  {
    "molecule": "CCOC(=O)c1sc2c(F)ccc(F)c2c1COc1c(F)cc(C(N)=O)cc1F [Example 79]",
    "log10 of EC50": -0.77
  },
  {
    "molecule": "CCOC(=O)c1sc2cccc(Cl)c2c1COc1c(OC)cc(C(N)=O)cc1OC [Example 41]",
    "log10 of EC50": -0.10
  },
  {
    "molecule": "CCOC(=O)c1sc2cccc(Cl)c2c1COc1ccc2c(N)noc2c1 [Example 47]",
    "log10 of EC50": 1.27
  },
  {
    "molecule": "CCOC(=O)c1sc2cccc(C3CC3)c2c1COc1ccc(C(N)=O)cc1 [Example 60]",
    "log10 of EC50": -0.08
  }
]

Q: Record request: log10 of EC50 value, item NC(=O)c1ccc(OCc2c(C(=O)OCc3ccccc3)sc3cccc(F)c23)cc1 [Example 3]
Result: 0.47

###

# experimental-system: huSTING (WT) (Homo sapiens (Human), UniProt Q86WV6, H232R)
# assay: THP-1 reporter cell line assay, THP-1-Dual KI-hSTING-R232 cells
# Type: cell-based
# condition-summary: read-out: Cellular EC50 huSTING (WT)
# Sequence (Q86WV6 whole entry H232R): as the sequence (Q86WV6 whole entry R71H/G230A/H232R/R293Q) above, with H71R, A230G, Q293R counted along it
parameter: pEC50
Would you please state pEC50, meaning minus log10 of the concentration in mol/L, as a bare number?

See these solved cases before continuing.
[
  {
    "compound": "NC(=O)c1cc(Cl)c(OCc2c(C(=O)O)sc3cccc(Cl)c23)c(Cl)c1 [Example 40]",
    "experimental-system": "huSTING (WT) (Homo sapiens (Human), UniProt Q86WV6, H232R)",
    "measurement": 4.40
  },
  {
    "compound": "CCOC(=O)c1sc2cccc(Br)c2c1COc1c(F)cc(C(N)=O)cc1F [Example 89]",
    "experimental-system": "huSTING (WT) (Homo sapiens (Human), UniProt Q86WV6, H232R)",
    "measurement": 6.83
  },
  {
    "compound": "CCOC(=O)c1sc2c(OC)ccc(Cl)c2c1COc1c(F)cc(C(N)=O)cc1F [Example 149]",
    "experimental-system": "huSTING (WT) (Homo sapiens (Human), UniProt Q86WV6, H232R)",
    "measurement": 6.10
  },
  {
    "compound": "COC(=O)N(C)CCOC(=O)c1sc2cccc(Cl)c2c1COc1c(F)cc(C(N)=O)cc1F [Example 161]",
    "experimental-system": "huSTING (WT) (Homo sapiens (Human), UniProt Q86WV6, H232R)",
    "measurement": 6.17
  }
]

Next compound, pEC50 to be filled in.
Q: Record request: pEC50 value, item CCOC(=O)c1sc2cccc(Cl)c2c1COc1ccc(C(N)=O)c(OC)c1 [Example 97]
Result: 5.01

###

Catalogue of pEC50 values
# experimental-system: huSTING (WT) (Homo sapiens (Human), UniProt Q86WV6, H232R)
# assay: THP-1 reporter cell line assay, THP-1-Dual KI-hSTING-R232 cells
# Format: cell-based
# condition-summary: read-out: Cellular EC50 huSTING (WT)
Would you please state pEC50, meaning minus log10 of the concentration in mol/L, as a bare number?

Q: Record request: pEC50 value, item NC(=O)c1ccc(OCc2c(C(=O)NCc3ccccc3)sc3cccc(Br)c23)cc1 [Example 166]
Result: 4.54

Q: Record request: pEC50 value, item CCOC(=O)c1sc2ncnc(OC)c2c1COc1c(F)cc(C(N)=O)cc1F [Example 108]
Result: 6.47

Q: Record request: pEC50 value, item CN1CC(OC(=O)c2sc3cccc(Cl)c3c2COc2c(F)cc(C(N)=O)cc2F)C1 [Example 164]
Result: 6.60

Q: Record request: pEC50 value, item COC(=O)N1CCC(OC(=O)c2sc3cccc(Cl)c3c2COc2c(F)cc(C(N)=O)cc2F)CC1 [Example 163]
Result: 5.81

Q: Record request: pEC50 value, item COC(=O)c1sc2cccc(F)c2c1COc1ccc(C(N)=O)cc1 [Example 141]
Result: 5.48

###

# experimental-system: huSTING (WT) (Homo sapiens (Human), UniProt Q86WV6, H232R)
# assay: Differential scanning fluorimetry (DSF), huSTING (WT)
# Type: binding
# condition-summary: read-out: DSF huSTING (WT) ΔTm (° C.)
Catalogue of ΔTm at 100 µM values
# output: bare number, implied unit °C

Q: Record request: ΔTm at 100 µM value, item `NC(=O)c1c(F)cc(OCc2c(C(=O)O)sc3cccc(Cl)c23)cc1F`
Result: 1.19

Q: Record request: ΔTm at 100 µM value, item `NC(=O)c1ccc(OCc2c(C(=O)O)sc3cccc(Br)c23)cc1`
Result: 7.61

Q: Record request: ΔTm at 100 µM value, item `NC(=O)c1ccc(OCc2c(C(=O)O)sc3cccc(F)c23)cc1Cl`
Result: 0.02

Q: Record request: ΔTm at 100 µM value, item `NC(=O)c1ccc(OCc2c(C(=O)O)sc3cccc(Cl)c23)c(Cl)c1`
Result: -1.4

###

# experimental-system: human STING (HAQ) (Homo sapiens, UniProt Q86WV6, G230A/H232R/R293Q)
# Sequence (Q86WV6 whole entry G230A/H232R/R293Q, looked up): as the sequence (Q86WV6 whole entry R71H/G230A/H232R/R293Q) above, with H71R counted along it
# condition-summary: read-out: SPR (HAQ) KD; 25° C.
Catalogue of Kd values
# output: bare number, implied unit µM

[
  {
    "molecule": "NC(=O)c1ccc(OCc2c(C(=O)O)sc3ccc(Cl)cc23)cc1 [Example 14]",
    "experimental-system": "human STING (HAQ) (Homo sapiens, UniProt Q86WV6, G230A/H232R/R293Q)",
    "parameter": "Kd",
    "measurement": 120
  }
]

Q: Record request: Kd value, item NC(=O)c1ccc(OCc2c(C(=O)O)sc3cccc(Cl)c23)cc1Br [Example 64]
Result: 6.2

Q: Record request: Kd value, item N#Cc1cc(C(N)=O)ccc1OCc1c(C(=O)O)sc2cccc(Cl)c12 [Example 44]
Result: 7.95

###

# experimental-system: huSTING (WT) (Homo sapiens (Human), UniProt Q86WV6, H232R)
# assay: THP-1 reporter cell line assay, THP-1-Dual KI-hSTING-R232 cells
# Assay type: cell-based
# condition-summary: read-out: Cellular EC50 huSTING (WT)
pEC50: −log10 of the molar value.
Catalogue of pEC50 values

See these solved cases before continuing.
[
  {
    "smiles-input": "NC(=O)c1cc(F)c(OCc2c(C(=O)O)sc3ccc(F)c(Cl)c23)c(F)c1",
    "experimental-system": "huSTING (WT) (Homo sapiens (Human), UniProt Q86WV6, H232R)",
    "measurement": "< 4.30"
  },
  {
    "smiles-input": "NC(=O)c1ccc(OCc2c(C(=O)O)sc3cccc(Cl)c23)cc1Br",
    "experimental-system": "huSTING (WT) (Homo sapiens (Human), UniProt Q86WV6, H232R)",
    "measurement": "< 4.30"
  }
]

Next compound, pEC50 to be filled in.
Q: Record request: pEC50 value, item `NC(=O)c1ccc(OCc2c(C(=O)O)sc3cccnc23)cc1`
Result: < 4.30
